Molecular target: UniProt P22455
Sequence (P22455 22-802): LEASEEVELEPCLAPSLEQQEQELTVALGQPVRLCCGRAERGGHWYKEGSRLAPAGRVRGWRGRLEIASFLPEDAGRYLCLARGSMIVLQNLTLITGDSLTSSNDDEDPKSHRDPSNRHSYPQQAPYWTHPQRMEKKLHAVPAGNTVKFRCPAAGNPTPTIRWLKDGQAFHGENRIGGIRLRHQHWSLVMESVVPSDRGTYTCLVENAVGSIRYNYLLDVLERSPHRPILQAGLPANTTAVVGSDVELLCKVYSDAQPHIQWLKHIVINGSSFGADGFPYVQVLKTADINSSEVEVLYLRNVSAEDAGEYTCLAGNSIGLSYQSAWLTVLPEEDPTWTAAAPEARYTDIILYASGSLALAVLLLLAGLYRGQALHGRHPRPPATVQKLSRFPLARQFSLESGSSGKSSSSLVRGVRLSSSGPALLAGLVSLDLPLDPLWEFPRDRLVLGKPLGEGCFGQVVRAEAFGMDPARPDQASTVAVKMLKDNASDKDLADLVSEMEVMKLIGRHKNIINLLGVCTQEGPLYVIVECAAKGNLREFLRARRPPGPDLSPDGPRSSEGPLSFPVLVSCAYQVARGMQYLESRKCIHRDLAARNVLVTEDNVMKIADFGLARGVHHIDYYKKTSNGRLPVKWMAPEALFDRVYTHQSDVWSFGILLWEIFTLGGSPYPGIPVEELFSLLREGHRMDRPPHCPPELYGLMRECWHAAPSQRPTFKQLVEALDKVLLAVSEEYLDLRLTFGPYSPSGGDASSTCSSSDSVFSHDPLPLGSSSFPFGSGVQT
endpoint_name: log10(Kd) (log10 of the value in nM)

molecule: C=CC(=O)Nc1cccc2c1ccn2-c1nc(Nc2ccc(N3CCS(=N)(=O)CC3)cc2)ncc1Cl [Example 81]
log10(Kd): 3.28

molecule: CS(=N)(=O)c1ccc(Nc2ncc(Cl)c(-c3c[nH]c4ccccc34)n2)cc1 (centres unmarked) [Example 52]
log10(Kd): 2.59

molecule: CN(C)C/C=C/C(=O)Nc1ccc2c(ccn2-c2nc(Nc3ccc(N=S(C)(C)=O)cc3)ncc2Cl)c1 [Example 67]
log10(Kd): 2.71

molecule: C=CC(=O)Nc1ccc2c(ccn2-c2nc(Nc3ccc(S(C)(=N)=O)cc3)ncc2Cl)c1 (centres unmarked) [Example 70]
log10(Kd): 2.57

molecule: CS(C)(=O)=Nc1cccc(Nc2ncc(Cl)c(-c3c[nH]c4ccccc34)n2)c1 [Example 7]
log10(Kd): 2.45

molecule: C=CC(=O)Nc1ccc2c(ccn2-c2nc(Nc3ccc(N=S(C)(C)=O)c(F)c3)ncc2Cl)c1C [Example 84]
log10(Kd): 3.36

molecule: CC(C)Oc1cc(N=S(C)(C)=O)ccc1Nc1ncc(Cl)c(-c2c[nH]c3ccccc23)n1 [Example 3]
log10(Kd): 2.46

molecule: C=CC(=O)Nc1ccc2c(c1)c(C)cn2-c1nc(Nc2ccc(N=S(C)(C)=O)c(OC)c2)ncc1Cl [Example 64]
log10(Kd): 1.77
